# tested_target: glucagon receptor (UniProt P47871 26-477, limits assumed)
# Sequence (P47871 26-477 limits assumed): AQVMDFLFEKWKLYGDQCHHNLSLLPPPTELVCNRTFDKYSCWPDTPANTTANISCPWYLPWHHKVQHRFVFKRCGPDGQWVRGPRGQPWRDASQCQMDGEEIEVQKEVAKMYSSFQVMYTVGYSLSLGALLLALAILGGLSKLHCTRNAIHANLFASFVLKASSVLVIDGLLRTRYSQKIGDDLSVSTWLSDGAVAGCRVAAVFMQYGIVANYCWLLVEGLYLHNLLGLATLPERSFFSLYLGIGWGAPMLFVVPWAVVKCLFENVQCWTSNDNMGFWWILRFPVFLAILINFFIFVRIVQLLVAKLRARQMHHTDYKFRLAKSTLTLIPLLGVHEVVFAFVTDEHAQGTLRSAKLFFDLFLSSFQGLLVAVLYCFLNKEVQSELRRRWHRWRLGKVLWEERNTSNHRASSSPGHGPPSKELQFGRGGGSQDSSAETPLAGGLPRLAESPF
# assay_details: cell-based or functional assay
Numbered stars: 1 amine (or outer) side, 2 acyl side, 3 side chain; on linkers, the order of the positions; unused ones are H or OH. Square brackets hold non-standard residues; d marks the D form. Side chains are listed from the residue outwards. Ends that are not written are not given here. * marks the point of attachment. 4‑HPA = 4-hydroxyphenylacetic acid, O=C(Cc1ccc(O[*:3])cc1)[*:2]; C16 acyl = C16 fatty acyl group bound via a gamma-Glu spacer; γGlu = O=C(O)[C@H](CCC(=O)[*:2])N[*:1]; Desaminotyrosyl = O=C(CCc1ccc(O)cc1)*; Palmitoyl = CCCCCCCCCCCCCCCC(=O)*
EC50 at Glucagon Receptor (cAMP luciferase reporter, HEK293) by entry:
observable: EC50 at Glucagon Receptor (cAMP luciferase reporter, HEK293) (nM)

1. [Desaminotyrosyl]AQGTFTSDYSKYLDERAAQDFVQWLLEGGPSSGAPPPSK(Palmitoyl)G-NH2 [peptide of SEQ ID NO: 157] :: 0.047
2. [4‑HPA]AQGTFTSDK([γGlu-C16 acyl])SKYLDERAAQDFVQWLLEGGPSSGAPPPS-NH2 [peptide of SEQ ID NO: 156] :: 0.011
3. XAEGTFTSDKSKYLDERAAQDFVQWLLEGGPSSGAPPPS (position 1 Des-NH2-Tyr (desamino L-Tyr); position 2 Ala; C-terminal amide; other non-coded or acylated residues as in the sequence listing) [peptide of SEQ ID NO: 145] :: 3.73
4. Ac-[dH]AQGTFTSDK([γGlu-Palmitoyl])SKYLDERAAQDFVQWLLEAGPSSGAPPPS-NH2 [peptide of SEQ ID NO: 151] :: 0.003
5. Ac-[dH]AEGTFTSDK([γGlu-Palmitoyl])SKYLDERAAQDFVQWLLEAGPSSGAPPPS-NH2 [peptide of SEQ ID NO: 154] :: 0.847
6. [Desaminotyrosyl]AQGTFTSDYSKYLDERAAQDFVQWLLEGGPSSGAPPPSK([γGlu-γGlu-Palmitoyl])G-NH2 [peptide of SEQ ID NO: 160] :: 0.049
